Compiled record: IC50 values for PKMYT1 (Homo sapiens) across several sources.

Some molecules with recorded IC50:
N#CC1(c2cccc(-n3c4nc(Nc5ccc6c(c5)CNCC6)ncc4c(=O)n3CC(F)(F)F)n2)CC1
767 nM
Cc1c(O)cc(Cl)cc1-c1c(N)c(C(N)=O)nc2cccnc12 (atropisomer, axis not shown)
50 to 500 nM

(Q) Value wanted: IC50 (PKMYT1 (Homo sapiens)) of entry Cc1c(O)cc(O)cc1-c1c(N)c(C(N)=O)cc2nccnc12
(A) 50 to 500 nM

(Q) Value wanted: IC50 (PKMYT1 (Homo sapiens)) of entry Cc1ccc(O)c(C)c1-c1c(N)c(C(N)=O)cc2c1nc(C(F)F)n2C(F)F (atropisomer, axis not shown; (P))
(A) < 50 nM

(Q) Value wanted: IC50 (PKMYT1 (Homo sapiens)) of entry Cc1ccc(O)c(C)c1-c1cc(C(N)=O)cc2cnn(C)c12
(A) ≥ 5000 nM

(Q) Value wanted: IC50 (PKMYT1 (Homo sapiens)) of entry Cc1cnc2cc(C(N)=O)c(N)c(-c3cccc(O)c3C)c2n1 (atropisomer, axis not shown)
(A) < 50 nM

(Q) Value wanted: IC50 (PKMYT1 (Homo sapiens)) of entry Cc1ccc2[nH]nc(F)c2c1-c1c(N)c(C(N)=O)cc2nccnc12 (atropisomer, axis not shown)
(A) 50 to 500 nM

(Q) Value wanted: IC50 (PKMYT1 (Homo sapiens)) of entry Cc1c(-c2c(N)c(C(N)=O)cc3nccnc23)ccc2oc(N)nc12
(A) ≥ 5000 nM
